The entries below pair compounds with Ki values for Prothrombin (Homo sapiens), as found in several publications.
Endpoint Name: Ki (µM)

Compound | Recorded Value
CCOC(=O)C(=O)N(Cc1cc(F)cc(F)c1)c1ccc2c(c1)OC(C)(COc1ccc(C(=N)N)cc1)CN2C (centres undefined) | 0.018

[P] CC1(C)C2CC1[C@]1(C)OB([C@H](CCCN=C(N)N)NC(=O)c3ccc(-c4ccccc4)cc3F)O[C@@H]1C2 (some centres undefined)
[Q] N=C(N)NNS(=O)(=O)c1cccc2ccccc12
[R] O=C(Cn1c(Cl)cnc(NCC(F)(F)c2cccc[n+]2[O-])c1=O)NCc1ccccc1
[S] COc1ccc(C[C@@H](C)Nc2ccncc2S(=O)(=O)N[C@@H](Cc2ccc(N)cc2)C(=O)N2CCC(CCF)CC2)cc1
Please give the order of these compounds when sorted by Ki, largest value leading. Rank them, then answer with their labels in that order.
Q, S, R, P
(Q: 0.125 µM, S: 0.015 µM, R: 0.007 µM, P: 0.0012 µM)

[I] C#Cc1cc(O[C@H]2CCOC2)cc(C(Nc2ccc(C(=N)N)cc2)C(=O)O)c1 (some centres undefined)
[II] N=C(N)NNS(=O)(=O)c1cccc(C(=O)O)c1
[III] COc1ccc2sc(S(=O)(=O)N[C@H]3CCN(Cc4cc(C(=N)N)ccc4N)C3=O)cc2n1
[IV] N=C(N)c1ccc(CNC(=O)[C@@H]2CCCN2C(=O)[C@H](N)C2CCCCC2)cc1
Arrange the 4 entries by Ki so the values rise. Enter labels, ranked according to the request.
IV, II, III, I

###

Please find below pKi measurements for Prothrombin (Homo sapiens, UniProt P00734), combined from several publications.
pKi: −log10 of the molar value.
Endpoint Name: pKi

Recorded results for 5 compounds are shown here.
Compound | Endpoint Name | Recorded Value
Nc1cc[n+](Cc2ccc(OC(CCc3ccccc3)c3ccccc3)cc2)cc1 (configuration not stated) | pKi | 6.80
N=C(N)N1CCCC(C[C@H](NC(=O)CN2C(=O)CN(CCCc3ccccc3)C(=O)[C@H]2Cc2ccccc2)C(=O)c2nc3ccccc3s2)C1 (some centres not stated) | pKi | 7.10
N=C(N)c1ccc(/C=C2/CCCC/C(=C/c3ccc(C(N)=O)cc3)C2=O)cc1 | pKi | 6.96
CN1CCN=C1c1cccc(Oc2nc(Oc3cc(C(=N)N)ccc3O)c(F)c(OC3CCN(CC(=O)O)CC3)c2F)c1 | pKi | 6.90
CN1CC(=O)N(CC(=O)N[C@@H](CC2CCCN(C(=N)N)C2)C(=O)c2nccs2)[C@@H](Cc2ccc3ccccc3c2)C1=O (some centres not stated) | pKi | 6.85

[1] CC[C@H](C)[C@@H](NS(=O)(=O)Cc1ccccc1)C(=O)N[C@@H](CCC(N)=O)C(=O)NCc1ccc(C(=N)N)cc1
[2] Cc1cnc(NCCc2ccccc2)c(=O)n1CC(=O)NCc1ccc2c(N)noc2c1
Compare 1 and 2 and name the one whose reported pKi is smaller. Returns: label corresponding to the selected item.
1
(1: 6.82, 2: 7.09)

###

System: Prothrombin (Homo sapiens) | Read-out: Ki | Origin: multiple publications

Below are worked cases with known answers.
Compound | Assay System | Ki
Cc1c(F)c(Oc2cccc(CCC(=O)N(C)C)c2)nc(Oc2cccc(C(=N)N)c2)c1F | Prothrombin (Homo sapiens) | > 5 µM
O=C(Nc1ccc(Cl)cc1)c1ccc(C(F)(F)F)cc1NC(=O)c1sc2ccccc2c1Cl | Prothrombin (Homo sapiens) | > 5 µM
N=C(N)c1cccc(CN2CC[C@H](NS(=O)(=O)c3ccc4ccc(N)nc4c3)C2=O)c1 | Prothrombin (Homo sapiens) | > 4 µM
COC(=O)Nc1ccc2c(c1)NC(=O)CC/C=C/C[C@H](NC(=O)/C=C/c1cc(Cl)ccc1-n1cnnn1)c1nc-2c[nH]1 | Prothrombin (Homo sapiens) | > 11.5 µM
CCOCC1(C(=O)Nc2ncc(-c3ccccc3S(N)(=O)=O)cn2)CC(c2cccc(C(=N)N)c2)=NO1 (centres undefined) | Prothrombin (Homo sapiens) | > 21 µM
CCN1CCC(NC(=O)c2cc3ccccc3n2Cc2cc(-c3ccc(Cl)s3)on2)CC1 | Prothrombin (Homo sapiens) | > 10 µM
CC1(C)CC(=O)C=C(N2CC[C@H](Oc3ccc(C(Oc4ccc5c(c4)CN(C(=N)N)CC5)C(=O)O)cc3)C2)C1 (some centres undefined) | Prothrombin (Homo sapiens) | > 100 µM
CC(=N)N1CCC(Oc2ccc(C(Oc3ccc4c(c3)CN(C(=N)N)CC4)C(=O)O)cc2)CC1 (centres undefined) | Prothrombin (Homo sapiens) | > 100 µM

Consider the additional compound presented here.
// returns reported Ki for input COc1ccc(C(=N)N2CCC(Oc3ccc(C(Oc4ccc5c(c4)CN(C(=N)N)CC5)C(=O)O)cc3)CC2)cc1 (centres undefined)
> 100 µM
